# credit: patent US20250221966A1

- Target under test: human RXFP1 (Homo sapiens, UniProt Q9HBX9)
- Construct: expressed in transfected cells
- Sequence (Q9HBX9 whole entry): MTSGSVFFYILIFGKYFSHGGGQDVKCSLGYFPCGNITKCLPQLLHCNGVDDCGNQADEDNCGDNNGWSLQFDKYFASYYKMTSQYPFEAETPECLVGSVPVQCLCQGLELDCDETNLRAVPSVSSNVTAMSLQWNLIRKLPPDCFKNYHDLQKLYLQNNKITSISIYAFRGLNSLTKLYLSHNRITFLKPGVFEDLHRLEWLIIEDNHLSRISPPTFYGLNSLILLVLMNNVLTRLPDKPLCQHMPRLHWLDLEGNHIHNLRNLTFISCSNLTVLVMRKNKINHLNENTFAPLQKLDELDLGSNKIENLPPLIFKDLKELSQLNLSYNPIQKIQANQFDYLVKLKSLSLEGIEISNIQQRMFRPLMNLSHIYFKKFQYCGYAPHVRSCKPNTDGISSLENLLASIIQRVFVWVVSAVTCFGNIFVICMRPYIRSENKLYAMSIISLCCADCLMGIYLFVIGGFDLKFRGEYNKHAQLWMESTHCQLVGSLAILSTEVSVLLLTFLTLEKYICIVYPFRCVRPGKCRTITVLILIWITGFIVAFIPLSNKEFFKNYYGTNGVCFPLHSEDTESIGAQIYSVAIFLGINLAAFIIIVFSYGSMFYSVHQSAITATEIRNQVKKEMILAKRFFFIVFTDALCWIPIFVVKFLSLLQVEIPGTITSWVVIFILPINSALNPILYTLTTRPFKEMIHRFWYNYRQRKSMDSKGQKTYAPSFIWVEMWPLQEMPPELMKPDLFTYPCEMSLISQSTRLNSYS
- Protocol notes: RXFP1 cAMP assay (hRXFP1 HEK293 cAMP assay, HTRF)
- Type: cell-based
- Condition description: HEK293 cells stably expressing human RXFP1, 30 min at room temperature, read-out: cAMP hRXFP1 HEK293 Assay EC50
- Procedure: RXFP1 Cyclic Adenosine Monophosphate (cAMP) Assays. […] Cells were dissociated and suspended in assay buffer. The assay buffer was HBSS buffer (with calcium and magnesium) containing 20 mM HEPES, 0.05% BSA, and 0.5 mM IBMX. […] The level of intracellular cAMP was determined using the HTRF HiRange cAMP assay reagent kit (Cisbio) according to manufacturer's instructions. […]
Measured attribute: pEC50
One number for each entry, as −log10 of the molar value.

Consider the following illustrative entries.
Compound: COc1ccc(C2=NOC3COCC23)cc1C(=O)N[C@H]1[C@@H](C(=O)N[C@@H]2CCc3ccccc32)[C@H]2CC[C@@H]1/C2=C\C1CC1 (stereo partly shown)
Target under test: human RXFP1 (Homo sapiens, UniProt Q9HBX9)
pEC50: 7.15

Compound: CCCOc1c(F)cc(C2=NOC3CC(CO)CC23)cc1C(=O)N[C@H]1[C@@H](C(=O)Nc2ccc(F)c(C(F)(F)F)c2)[C@H]2CC[C@@H]1/C2=C\C1CC1 (stereo partly shown) [compound 782]
Target under test: human RXFP1 (Homo sapiens, UniProt Q9HBX9)
pEC50: 8.49

Compound: COc1ccc(C2=NOC3COCC23)cc1C(=O)N[C@H]1[C@@H](C(=O)N[C@@H]2CCOc3ccccc32)[C@H]2CC[C@@H]1/C2=C\C1CC1 (stereo partly shown)
Target under test: human RXFP1 (Homo sapiens, UniProt Q9HBX9)
pEC50: 6.62

Compound: CNC(=O)OC(C(=O)NOC)c1ccc(F)c(-c2ccc(OC)c(C(=O)N[C@@H]3C4CCC(/C4=C/C4CC4)[C@@H]3C(=O)Nc3ccc(F)c(C(F)(F)F)c3)c2)c1 (stereo partly shown)
Target under test: human RXFP1 (Homo sapiens, UniProt Q9HBX9)
pEC50: 9.00

Compound: COc1ccc(C2=NOC3COCC23)cc1C(=O)N[C@H]1[C@@H](C(=O)NC2CCC(C#N)C2)[C@H]2CC[C@@H]1/C2=C\C1CC1 (stereo partly shown)
Target under test: human RXFP1 (Homo sapiens, UniProt Q9HBX9)
pEC50: 6.44

I need pEC50 for every entry listed below, if you could help.
1. COc1cc(F)c(F)cc1C(=O)N[C@@H]1C2CCC(/C2=C/c2cccc(OC(F)F)c2)[C@@H]1C(=O)Nc1ccc(F)c(C(F)(F)F)c1 (stereo partly shown)
2. COc1ccc(C2=NOC3CC(O)CC23)cc1C(=O)N[C@H]1[C@@H](C(=O)Nc2ccc(F)c(C(F)(F)F)c2)[C@H]2CC[C@@H]1/C2=C\C1CCC1 (mixture of isomers)
3. COc1ccc(-c2cc(C(N)=O)on2)cc1C(=O)N[C@@H]1C2CCC(/C2=C/C2CC2)[C@@H]1C(=O)Nc1ccc(F)c(C(F)(F)F)c1 (stereo partly shown)
4. COc1ccc(-c2ccc(C(=O)NCC(=O)O)cc2F)cc1C(=O)N[C@@H]1C2CCC(/C2=C/c2ccccc2)[C@@H]1C(=O)Nc1ccc(F)c(C(F)(F)F)c1 (stereo partly shown)
5. COc1ccc(-c2cc(C(NC(=O)COc3ccccc3)C(=O)O)ccc2F)cc1C(=O)N[C@@H]1C2CCC(/C2=C/C(F)(F)F)[C@@H]1C(=O)Nc1ccc(F)c(C(F)(F)F)c1 (stereo partly shown)
6. COc1cc(F)c(F)cc1C(=O)N[C@@H]1C2CCC(/C2=C/c2cccc(Oc3ccccc3)c2)[C@@H]1C(=O)Nc1ccc(F)c(C(F)(F)F)c1 (stereo partly shown)

[6.42, 7.32, 7.35, 8.30, 8.15, 6.92]
